- Tested on: Staphylococcus epidermidis ATCC 12228
Property: MIC (µg/mL)
Numbers only; they are read as µg/mL.

Ask: Identify measured MIC associated with CCN1CCN(c2cc3c(cc2F)c(SCC2=C(C(=O)[O-])N4C(=O)C(NC(=O)/C(=N\OC(C)(C)C(=O)O)c5csc(N)n5)C4SC2)cc[n+]3C2CC2)CC1 (stereo not shown)
Result: 1.56

Ask: Provide measured MIC value, entry: CCN1CCN(c2cc3c(cc2F)c(SCC2=C(C(=O)[O-])N4C(=O)C(NC(=O)/C(=N\OC(C)(C)C(=O)O)c5csc(N)n5)C4SC2)cc[n+]3CC)CC1 (stereo not shown)
Result: 1.56

Ask: Report measured MIC; entry is C=CCO/N=C(\C(=O)NC1C(=O)N2C(C(=O)[O-])=C(CSc3cc[n+](C)c4cc(N5CCNCC5)c(F)cc34)CS[C@H]12)c1csc(N)n1 (stereo partly shown)
Result: 0.1

Ask: Report measured MIC; entry is C=CCO/N=C(\C(=O)NC1C(=O)N2C(C(=O)[O-])=C(CSc3cc[n+](CC=C)c4cc(N5CCNCC5)c(F)cc34)CS[C@H]12)c1csc(N)n1 (stereo partly shown)
Result: 1.56

###

- Test system: Pseudomonas aeurginosa NCTC 10490
- Experiment Notes: MIC, two-fold dilution method, Pseudomonas aeurginosa NCTC 10490
- Assay type: cell-based
- Measurement Conditions: NCTC10490, Muller Hinton Broth, 10^6 CFU per ml, 37° C., 18 to 20 hours, read-out: Antibacterial Activity (MIC)
Please note: MIC exactly at 0.8 µg/mL is 0 (no). Only values below 0.8 µg/mL get 1 (yes).

Ask: Confirm or reject: MIC of C=CCO/N=C(\C(=O)NC1C(=O)N2C(C(=O)[O-])=C(CSc3cc[n+](C4CC4)c4cc(N5CCNCC5)c(F)cc34)CS[C@H]12)c1csc(N)n1 (some centres unmarked) lies strictly below 0.8 µg/mL
Result: 1 (yes)

Ask: API: query returns whether the molecule falls strictly under 0.8 µg/mL in MIC. Query: CO/N=C(\C(=O)NC1C(=O)N2C(C(=O)[O-])=C(CSc3cc[n+](C4CC4)c4cc(N5CCN(C)CC5)c(F)cc34)CSC12)c1csc(N)n1 (centres unmarked)
Result: 0 (no)

Ask: is_below(MIC, 0.8 µg/mL) for CC[n+]1ccc(SCC2=C(C(=O)[O-])N3C(=O)C(NC(=O)/C(=N\OC)c4csc(N)n4)C3SC2)c2cc(F)c(N3CCNCC3)cc21 (centres unmarked) ?
Result: 0 (no)

Ask: Could you please tell me whether MIC recorded for CO/N=C(\C(=O)N[C@@H]1C(=O)N2C(C(=O)O)=C(COC(C)=O)CS[C@H]12)c1csc(N)n1 [CTX, Cefotaxime, reference compound] is less than 0.8 µg/mL?
Result: 0 (no)

Ask: MIC strictly < 0.8 µg/mL for this molecule? C#CCO/N=C(\C(=O)NC1C(=O)N2C(C(=O)[O-])=C(CSc3cc[n+](C)c4cc(N5CCN(CC)CC5)c(F)cc34)CSC12)c1csc(N)n1 (centres unmarked)
Result: 1 (yes)

Ask: I wonder whether C#CCO/N=C(\C(=O)NC1C(=O)N2C(C(=O)[O-])=C(CSc3cc[n+](CC)c4cc(N5CCN(CC)CC5)c(F)cc34)CSC12)c1csc(N)n1 (centres unmarked) has MIC below 0.8 µg/mL. Can you tell?
Result: 0 (no)

Ask: API: query returns whether the molecule falls strictly under 0.8 µg/mL in MIC. Query: C#CCO/N=C(\C(=O)NC1C(=O)N2C(C(=O)[O-])=C(CSc3cc[n+](CC=C)c4cc(N5CCN(CC)CC5)c(F)cc34)CSC12)c1csc(N)n1 (centres unmarked)
Result: 0 (no)

Ask: MIC under 0.8 µg/mL? Item: CN1CCN(c2cc3c(cc2F)c(SCC2=C(C(=O)[O-])N4C(=O)C(NC(=O)/C(=N\OC(C)(C)C(=O)O)c5csc(N)n5)C4SC2)cc[n+]3C)CC1 (centres unmarked)
Result: 0 (no)

Ask: Record C=CCO/N=C(\C(=O)NC1C(=O)N2C(C(=O)[O-])=C(CSc3cc[n+](CC=C)c4cc(N5CCN(C)CC5)c(F)cc34)CSC12)c1csc(N)n1 (centres unmarked) : is its MIC strictly below 0.8 µg/mL?
Result: 0 (no)

Ask: Decide: MIC of C#CCO/N=C(\C(=O)NC1C(=O)N2C(C(=O)[O-])=C(CSc3cc[n+](C)c4cc(N5CCNCC5)c(F)cc34)CS[C@H]12)c1csc(N)n1 (some centres unmarked) strictly below 0.8 µg/mL?
Result: 1 (yes)
